Origin of the recorded values: patent US20190002549A1

- Target: T1, recombinant human GM-CSF protein (human, UniProt P04141 18-144)
- T1 construct: Bought recombinant protein (Genscript); also called biotinylated human GM-CSF protein
- T1 sequence (P04141 18-144 limits assumed): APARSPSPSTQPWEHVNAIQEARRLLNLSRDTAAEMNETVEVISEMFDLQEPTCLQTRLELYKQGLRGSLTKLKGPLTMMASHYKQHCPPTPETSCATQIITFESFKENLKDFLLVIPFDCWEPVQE
- Experiment notes: SPR Biacore T200, antibody captured by anti-human Fc, GM-CSF as analyte, 25 C, 1:1 model
Below: a set of entries, each annotated with reported pKd.
Worth noting: pKd values are minus log10 of concentrations stated in mol/L.

q: Quick one: give measured pKd for Hu50C5-11 (antibody, V domains shown, Humanized; also called 35230Hu50C5-11) VH: EVQLVQSGAEVKKPGSSVKVSCKASGYIFSPYSIHWVRQAPGQGLEWIGYINPSTGYIEYNQHFKDRVTITADKSTSTAYMELRSLRSEDTAVYYCARGGDYEGYFDYWGQGTTVTVSS VL: DIQMTQSPSSLSASVGDRVTITCRLNENIYSFLAWYQQKPGKAPKLLIYNAETLAEGVPSRFSGSGSGTDFTLTISSLQPEDFATYYCQQHYGTPYTFGGGTKVEIK
a: 10.51

q: Quick one: give measured pKd for Hu23F4-13 (antibody, V domains shown, Humanized) VH: EVQLVQSGAEVKKPGATVKISCKVSGYTFTSHYLHWVQQAPGKGLEWIGWIFPGDDKTKYNEKFKGRATLTSDTSTDTAYMELSSLRSEDTAVYYCARGTKYLNWNFDVWGQGTTVTVSS VL: DIQLTQSPSFLSASVGDRVTITCKANQNVGTTLAWYQQKPGKAPKLLIYSASYRYSGVPSRFSGSGSGTEFTLTISSLQPEDFATYYCHQYTTYPLTFGGGTKVEIK
a: 10.03

q: Quick one: give measured pKd for Hu50C5-8 (antibody, V domains shown, Humanized; also called 35230Hu50C5-8) VH: EVQLVQSGAEVKKPGSSVKVSCKASGYIFSPYSIHWVRQAPGQGLEWMGYINPSTGYIEYNQHFKDRVTITADKSTSTAYMELRSLRSEDTAVYYCARGGDYEGYFDYWGQGTTVTVSS VL: DIQMTQSPSSLSASVGDRVTITCRLNENIYSFLAWYQQKPGKAPKLLVYNAETLAEDVPSRFSGSGSGTDFTLTISSLQPEDFATYYCQQHYGTPYTFGGGTKVEIK
a: 10.55

q: Quick one: give measured pKd for Hu23F4-6 (antibody, V domains shown, Humanized) VH: EVQLVQSGAEVKKPGATVKISCKVSGYTFTSHYLHWVQQAPGKGLEWMGWIFPGDDKTKYNEKFKGRVTITSDTSTDTAYMELSSLRSEDTAVYYCARGTKYLNWNFDVWGQGTTVTVSS VL: DIQLTQSPSFLSASVGDRVTITCKANQNVGTTLAWYQQKPGKAPKALIYSASYRYSGVPSRFSGSGSGTEFTLTISSLQPEDFATYYCHQYTTYPLTFGGGTKVEIK
a: 9.81

q: Quick one: give measured pKd for Hu23F4-36 (antibody, V domains shown, Humanized) VH: EVQLVQSGAEVKKPGASVKVSCKASDYTLTSHYLHWVRQAPGQGLEWIGWIFPGDDKTKYNEKFKGRATLTSDTSISTAYMELSRLRSDDTAVYYCARGTKYLNWNFDVWGQGTTVTVSS VL: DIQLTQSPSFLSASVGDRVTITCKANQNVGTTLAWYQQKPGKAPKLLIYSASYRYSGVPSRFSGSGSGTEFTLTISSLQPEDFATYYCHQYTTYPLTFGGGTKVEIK
a: 10.09

We now examine a further binder.
q: Quick one: give measured pKd for Hu50C5-19 (antibody, V domains shown, Humanized; also called 35230Hu50C5-19) VH: EVQLVQSGAEVKKPGSSVKVSCKASGYIFSPYSIHWVRQAPGQGLEWIGYINPSTGYIEYNQHFKDRTTLTADKSTSTAYMELRSLRSEDTAVYYCARGGDYEGYFDYWGQGTTVTVSS VL: DIQMTQSPSSLSASVGDRVTITCRLNENIYSFLAWYQQKPGKAPKLLVYNAETLAEDVPSRFSGSGSGTQFTLTISSLQPEDFATYYCQQHYGTPYTFGGGTKVEIK
a: 10.64
